# System: 134 cancer cell lines
# Measurement Description: Cell viability assay (ATPlite, 72 hours), IC50 on cancer cell line panel
# Test Conditions: Homo sapiens, LNCaP-Clone-FGC, read-out: IC50 in cell proliferation assay
Test Readout: IC50

Query block: What measured IC50 goes with `C[C@H]1Oc2cc(cnc2N)-c2c(nn(C)c2C#N)CN(C)C(=O)c2ccc(F)cc21` ?
Result block: > 31.6 µM

###

# Assayed Target: panel of 255 wild-type kinases (Homo sapiens, UniProt P24941)
# Measurement Description: Kinase panel profiling at 1 µmol/L (MSA or IMAP), percentage inhibition
# Format: biochemical
# Test Conditions: CDK2/CycA2 kinase assay; 1 µmol/L single concentration; read-out: %-inhibition CDK2/CycA2
Test Readout: inhibition at 1 µM (%)
Numbers only; they are read as %.

- Smiles Code: "Cc1cc(Nc2ncnc3ccc(NC4=NC(C)(C)CO4)cc23)ccc1Oc1ccn2ncnc2c1"
  Test Value: -0.285
- Smiles Code: "CN1CCN(c2ccc(C(=O)Nc3n[nH]c4ccc(Cc5cc(F)cc(F)c5)cc34)c(NC3CCOCC3)c2)CC1"
  Test Value: 20
- Smiles Code: "C[C@H](Nc1ncnc2nc[nH]c12)c1cc2cccc(Cl)c2c(=O)n1-c1ccccc1"
  Test Value: -0.854
- Smiles Code: "C[C@H]1Oc2cc(cnc2N)-c2c(nn(C)c2C#N)CN(C)C(=O)c2ccc(F)cc21"
  Test Value: 1.87
- Smiles Code: "Cn1cc(-c2cc3c(N4CCN(c5ncc([C@@](C)(N)c6ccc(F)cc6)cn5)CC4)ncnn3c2)cn1"
  Test Value: -0.664

Query block: What value of inhibition at 1 µM has been reported for the following compound? `CCN1C(=O)N(c2c(F)c(OC)cc(OC)c2F)Cc2cnc3[nH]c(CN4CCOCC4)cc3c21`
Result block: 3.55

Query block: Any idea what inhibition at 1 µM was measured for `CO[C@]1(C(=O)N[C@@H](C)c2ccc(-n3cc(F)cn3)nc2)CC[C@H](c2nc(C)cc(Nc3cc(C)[nH]n3)n2)CC1` ?
Result block: 66
